study.system: REV-ERBα LBD (human; residues 281-614 Δ324-422) (Homo sapiens, UniProt P20393, DEL324-422)
Construct: 6×Histag-REV-ERBα LBD (human; residues 281-614 Δ324-422); made in house; host or cells: Escherichia coli
Sequence (P20393 with tags, fused parts or gaps DEL324-422): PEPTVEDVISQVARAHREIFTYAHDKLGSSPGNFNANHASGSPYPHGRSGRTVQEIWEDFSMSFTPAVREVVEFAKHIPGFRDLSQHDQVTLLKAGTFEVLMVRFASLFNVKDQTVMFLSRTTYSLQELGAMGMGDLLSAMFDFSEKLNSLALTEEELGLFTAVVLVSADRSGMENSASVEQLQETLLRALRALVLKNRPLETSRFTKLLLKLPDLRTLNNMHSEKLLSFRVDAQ
Sequence (Q9Y618 2335-2356 partner limits assumed): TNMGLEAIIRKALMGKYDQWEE
method.summary: TR-FRET corepressor interaction assay (REV-ERBα LBD, FITC-SMRT peptide)
Assay type: biochemical
conditions.used: Table 2, read-out: REVERBα agonism (EC50 class, FRET assay)
property.name: EC50

- compound: "CC(C)Cn1cc(CCNS(=O)(=O)N(C)C)c2ccc(-c3ncco3)cc21 [Compound 67]"
  study.system: "REV-ERBα LBD (human; residues 281-614 Δ324-422) (Homo sapiens, UniProt P20393, DEL324-422)"
  EC50: "500 to 3000 nM"
- compound: "CC(C)Cn1cc([C@H](NS(=O)(=O)C2CC2)C(F)(F)F)c2cc(F)c(-c3ccccc3Cl)cc21 [Example 314]"
  study.system: "REV-ERBα LBD (human; residues 281-614 Δ324-422) (Homo sapiens, UniProt P20393, DEL324-422)"
  EC50: "< 500 nM"
- compound: "Cc1c(CCNS(=O)(=O)N(C)C)c2ccc(-c3ccncc3)cc2n1CC(C)C [Compound 236]"
  study.system: "REV-ERBα LBD (human; residues 281-614 Δ324-422) (Homo sapiens, UniProt P20393, DEL324-422)"
  EC50: "500 to 3000 nM"

# input for lookup
Request: GET /values?readout=EC50&item= CC(C)Cn1cc(C(NS(=O)(=O)C(C)C)C(F)(F)F)c2ccc(-c3ccccc3C(F)(F)F)cc21 (centres unmarked) [Example 224]
Result: 500 to 3000 nM

----------
study.system: REV-ERBα LBD (human; residues 281-614 Δ324-422) (Homo sapiens, UniProt P20393, DEL324-422)
Construct: 6×Histag-REV-ERBα LBD (human; residues 281-614 Δ324-422); made in house; host or cells: Escherichia coli
method.summary: TR-FRET corepressor interaction assay (REV-ERBα LBD, FITC-SMRT peptide)
Assay type: biochemical
conditions.used: Table 2, read-out: REVERBα agonism (EC50 class, FRET assay)
Reported EC50 is given for each of the following compounds.

Request: GET /values?readout=EC50&item= CC(C)Cn1cc(CCNS(=O)(=O)N(C)C)c2ccc(-c3ccnc(N4CCOCC4)c3)cc21
Result: > 3000 nM

Request: GET /values?readout=EC50&item= COC(C)(C)Cn1cc([C@H](NS(=O)(=O)C2CCC2)C(F)(F)F)c2cc(F)c(-c3ccccc3C(F)(F)F)cc21
Result: < 500 nM

Request: GET /values?readout=EC50&item= CCn1cc(CCNS(=O)(=O)N(C)C)c2ccc(-c3ccncc3)cc21
Result: > 3000 nM

Request: GET /values?readout=EC50&item= Cc1cccc(C)c1-c1ccc2c(CCNS(=O)(=O)N(C)C)cn(CC(C)C)c2c1
Result: < 500 nM

Request: GET /values?readout=EC50&item= CC(C)Cn1cc(C(CS(C)(=O)=O)C(F)(F)F)c2ccc(-c3ccccc3C(F)(F)F)cc21 (stereo not shown)
Result: > 3000 nM

Request: GET /values?readout=EC50&item= CC(C)Cn1cc(CCNS(=O)(=O)N(C)C)c2ccc(NC(C)C)cc21
Result: 500 to 3000 nM

Request: GET /values?readout=EC50&item= CN(C)S(=O)(=O)NCCc1cn(Cc2cccc(C(F)(F)F)c2)c2cc(-c3ccncc3)ccc12
Result: 500 to 3000 nM
